Data origin: ChEMBL document CHEMBL3808299

measurement_protocol: Inhibition of hedgehog pathway in mouse Shh-Light2 cells after 46 hrs by luciferase reporter gene assay
Assay type: cell-based
recorded_conditions: Shh Light2, 46 h
assay_readout: IC50 (nM)

| molecule | value_measured |
| --- | --- |
| CCC(C)n1ncn(-c2ccc(N3CCN(c4ccc(OCC5COC(Cn6cncn6)(c6ccc(Cl)cc6Cl)O5)cc4)CC3)cc2)c1=O (stereo unspecified) | 690 |

----------
measurement_protocol: Inhibition of hedgehog pathway in mouse C3H10T1/2 cells assessed as Gli1 mRNA expression at 1 uM after 24 hrs by qPCR method
Format: cell-based
Parameters: scale not given: the % may be the effect or the level left
recorded_conditions: C3H 10T1/2

| compound | endpoint_unit | Activity |
| --- | --- | --- |
| CC[C@H](C)n1ncn(-c2ccc(N3CCN(c4ccc(OCC5COC(Cn6cncn6)(c6ccc(Cl)cc6Cl)O5)cc4)CC3)cc2)c1=O (some centres undefined) | % | 6.9 |
| CCC(C)n1ncn(-c2ccc(N3CCN(c4ccc(OCC5COC(Cn6cncn6)(c6ccc(Cl)cc6Cl)O5)cc4)CC3)cc2)c1=O (centres undefined) | % | 1.7 |
| O=c1[nH]ncn1-c1ccc(N2CCN(c3ccc(OCC4COC(Cn5cncn5)(c5ccc(Cl)cc5Cl)O4)cc3)CC2)cc1 (centres undefined) | % | 1.1 |
| CCC(C)n1ncn(-c2ccc(N3CCN(c4ccc(OCC5COC(C)(Cn6cncn6)O5)cc4)CC3)cc2)c1=O (centres undefined) | % | 61.4 |

----------
measurement_protocol: Antiproliferative activity against mouse MERP MB cells assessed as cell growth inhibition using methyl-[3H]thymidine after 48 hrs by liquid scintillation spectrophotometry
Format: functional
recorded_conditions: Medulloblastoma cell
assay_readout: log10(GI50) (log10 of the value in nM)

| compound | log10(GI50) |
| --- | --- |
| CCCn1ncn(-c2ccc(N3CCN(c4ccc(OC[C@H]5CO[C@](C)(c6ccc(Cl)cc6Cl)O5)cc4)CC3)cc2)c1=O | 4.35 |
| CCC(C)n1ncn(-c2ccc(N3CCN(c4ccc(OC[C@@H]5CO[C@@](C)(c6ccc(Cl)cc6Cl)O5)cc4)CC3)cc2)c1=O (stereo partly drawn) | 3.30 |
| CC[C@@H](C)n1ncn(-c2ccc(N3CCN(c4ccc(OC[C@@H]5CO[C@](C)(c6ccc(Cl)cc6Cl)O5)cc4)CC3)cc2)c1=O | 3.00 |
| CC[C@H](C)n1ncn(-c2ccc(N3CCN(c4ccc(OC[C@@H]5CO[C@](C)(c6ccc(Cl)cc6Cl)O5)cc4)CC3)cc2)c1=O | 2.59 |
| CCC(C)n1ncn(-c2ccc(N3CCN(c4ccc(OC[C@H]5CO[C@@](C)(c6ccc(Cl)cc6Cl)O5)cc4)CC3)cc2)c1=O (relative stereo) | 3.46 |
| CC[C@@H](C)n1ncn(-c2ccc(N3CCN(c4ccc(OC[C@@H]5CO[C@@](C)(c6ccc(Cl)cc6Cl)O5)cc4)CC3)cc2)c1=O | 2.78 |
| Nc1ccc(N2CCN(c3ccc(OCC4COC(Cn5cncn5)(c5ccc(Cl)cc5Cl)O4)cc3)CC2)cc1 (stereo not drawn) | 2.95 |
| CCC(C)n1ncn(-c2ccc(N3CCN(c4ccc(OCC5COC(Cn6cncn6)(c6ccc(Cl)cc6Cl)O5)cc4)CC3)cc2)c1=O (stereo not drawn) | 2.64 |

----------
measurement_protocol: Inhibition of hedgehog pathway in mouse C3H10T1/2 cells assessed as Gli1 mRNA expression at 1 uM after 24 hrs by qPCR method
Assay type: cell-based
Design: scale not given: the % may be the effect or the level left
recorded_conditions: C3H 10T1/2

| compound | Activity |
| --- | --- |
| CC[C@@H](C)n1ncn(-c2ccc(N3CCN(c4ccc(OCC5COC(Cn6cncn6)(c6ccc(Cl)cc6Cl)O5)cc4)CC3)cc2)c1=O (stereo partly drawn) | 3% |
| CCC(C)n1ncn(-c2ccc(N3CCN(c4ccc(O)cc4)CC3)cc2)c1=O (stereo not drawn) | 45.7% |
| CCC(C)n1ncn(-c2ccc(N3CCN(c4ccc(OCC5COC(Cn6cncn6)(c6ccccc6)O5)cc4)CC3)cc2)c1=O (stereo not drawn) | 13.1% |
| Nc1ccc(N2CCN(c3ccc(OCC4COC(Cn5cncn5)(c5ccc(Cl)cc5Cl)O4)cc3)CC2)cc1 (stereo not drawn) | 6.1% |
| CCC(C)n1ncn(-c2ccc(N3CCN(c4ccc(OCC5COC(C)(c6ccc(Cl)cc6Cl)O5)cc4)CC3)cc2)c1=O (stereo not drawn) | 17.8% |
| CCC(C)n1ncn(-c2ccc(N3CCN(c4ccc(OCC5COC(C)(C)O5)cc4)CC3)cc2)c1=O (stereo not drawn) | 71.4% |
| O=[N+]([O-])c1ccc(N2CCN(c3ccc(OCC4COC(Cn5cncn5)(c5ccc(Cl)cc5Cl)O4)cc3)CC2)cc1 (stereo not drawn) | 1.5% |
| CCCn1ncn(-c2ccc(N3CCN(c4ccc(OCC5COC(Cn6cncn6)(c6ccc(Cl)cc6Cl)O5)cc4)CC3)cc2)c1=O (stereo not drawn) | 58.5% |

----------
Listing of entries alongside the reported IC50.
measurement_protocol: Inhibition of hedgehog pathway in mouse ASZ cells assessed as downregulation of Gli1 mRNA expression after 48 hrs by qPCR method
Type: cell-based

| compound | endpoint_unit | IC50 |
| --- | --- | --- |
| CC[C@H](C)n1ncn(-c2ccc(N3CCN(c4ccc(OC[C@H]5CO[C@@](C)(c6ccc(Cl)cc6Cl)O5)cc4)CC3)cc2)c1=O | nM | 550 |
| CCC(C)n1ncn(-c2ccc(N3CCN(c4ccc(OCC5COC(Cn6cncn6)(c6ccccc6)O5)cc4)CC3)cc2)c1=O (centres undefined) | nM | 450 |
| CC[C@@H]([C@H](C)O)n1ncn(-c2ccc(N3CCN(c4ccc(OC[C@@H]5CO[C@@](Cn6cncn6)(c6ccc(F)cc6F)C5)cc4)CC3)cc2)c1=O | nM | 540 |
| CC[C@@H](C)n1ncn(-c2ccc(N3CCN(c4ccc(OC[C@@H]5CO[C@@](C)(c6ccc(Cl)cc6Cl)O5)cc4)CC3)cc2)c1=O | nM | 22 |
| CC[C@@H](C)n1ncn(-c2ccc(N3CCN(c4ccc(OC[C@H]5CO[C@](C)(c6ccc(Cl)cc6Cl)O5)cc4)CC3)cc2)c1=O | nM | 130 |
| CCCn1ncn(-c2ccc(N3CCN(c4ccc(OC[C@@H]5CO[C@@](C)(c6ccc(Cl)cc6Cl)O5)cc4)CC3)cc2)c1=O | nM | 1300 |
| CCC(C)n1ncn(-c2ccc(N3CCN(c4ccc(OCC5COC(Cn6cncn6)(c6ccc(Cl)cc6Cl)O5)cc4)CC3)cc2)c1=O (centres undefined) | nM | 140 |
| O=[N+]([O-])c1ccc(N2CCN(c3ccc(OCC4COC(Cn5cncn5)(c5ccc(Cl)cc5Cl)O4)cc3)CC2)cc1 (centres undefined) | nM | 90 |
| O=c1[nH]ncn1-c1ccc(N2CCN(c3ccc(OCC4COC(Cn5cncn5)(c5ccc(Cl)cc5Cl)O4)cc3)CC2)cc1 (centres undefined) | nM | 120 |

----------
measurement_protocol: Inhibition of hedgehog pathway in mouse ASZ cells assessed as downregulation of Gli1 mRNA expression after 48 hrs by qPCR method
Assay type: cell-based
pIC50: −log10 of the molar value.
assay_readout: pIC50

| molecule | assay_readout | value_measured |
| --- | --- | --- |
| CCCn1ncn(-c2ccc(N3CCN(c4ccc(OC[C@H]5CO[C@@](C)(c6ccc(Cl)cc6Cl)O5)cc4)CC3)cc2)c1=O | pIC50 | 6.27 |
| CC[C@@H](C)n1ncn(-c2ccc(N3CCN(c4ccc(OC[C@@H]5CO[C@](C)(c6ccc(Cl)cc6Cl)O5)cc4)CC3)cc2)c1=O | pIC50 | 7.62 |
| CC[C@H](C)n1ncn(-c2ccc(N3CCN(c4ccc(OC[C@@H]5CO[C@@](C)(c6ccc(Cl)cc6Cl)O5)cc4)CC3)cc2)c1=O | pIC50 | 6.42 |
| CC[C@@H](C)n1ncn(-c2ccc(N3CCN(c4ccc(OCC5COC(Cn6cncn6)(c6ccc(Cl)cc6Cl)O5)cc4)CC3)cc2)c1=O (some centres undefined) | pIC50 | 6.80 |
| Nc1ccc(N2CCN(c3ccc(OCC4COC(Cn5cncn5)(c5ccc(Cl)cc5Cl)O4)cc3)CC2)cc1 (centres undefined) | pIC50 | 6.92 |
| CCCn1ncn(-c2ccc(N3CCN(c4ccc(OC[C@H]5CO[C@](C)(c6ccc(Cl)cc6Cl)O5)cc4)CC3)cc2)c1=O | pIC50 | 6.70 |
| CC[C@H](C)n1ncn(-c2ccc(N3CCN(c4ccc(OC[C@@H]5CO[C@](C)(c6ccc(Cl)cc6Cl)O5)cc4)CC3)cc2)c1=O | pIC50 | 6.82 |
| CC[C@H](C)n1ncn(-c2ccc(N3CCN(c4ccc(OC[C@H]5CO[C@](C)(c6ccc(Cl)cc6Cl)O5)cc4)CC3)cc2)c1=O | pIC50 | 5.60 |
| CC[C@@H](C)n1ncn(-c2ccc(N3CCN(c4ccc(OC[C@H]5CO[C@@](C)(c6ccc(Cl)cc6Cl)O5)cc4)CC3)cc2)c1=O | pIC50 | 5.55 |
| CCC(C)n1ncn(-c2ccc(N3CCN(c4ccc(OC[C@H]5CO[C@@](C)(c6ccc(Cl)cc6Cl)O5)cc4)CC3)cc2)c1=O (relative stereo) | pIC50 | 7.15 |
| CCCn1ncn(-c2ccc(N3CCN(c4ccc(OC[C@@H]5CO[C@](C)(c6ccc(Cl)cc6Cl)O5)cc4)CC3)cc2)c1=O | pIC50 | 5.85 |
| CC[C@H](C)n1ncn(-c2ccc(N3CCN(c4ccc(OCC5COC(Cn6cncn6)(c6ccc(Cl)cc6Cl)O5)cc4)CC3)cc2)c1=O (some centres undefined) | pIC50 | 6.85 |
| CCC(C)n1ncn(-c2ccc(N3CCN(c4ccc(OC[C@@H]5CO[C@@](C)(c6ccc(Cl)cc6Cl)O5)cc4)CC3)cc2)c1=O (some centres undefined) | pIC50 | 7.11 |
| CCC(C)n1ncn(-c2ccc(N3CCN(c4ccc(OCC5COC(C)(c6ccc(Cl)cc6Cl)O5)cc4)CC3)cc2)c1=O (centres undefined) | pIC50 | 6.77 |
